- System: S. aureus 105
- Measurement setup: S. aureus 105; MHB (melimine/Mel4 with 0.2% BSA, 0.01% acetic acid); mean MIC
Square brackets hold non-standard residues; d marks the D form. Peptide text beside a SMILES is read from it. Nspe = C[C@H](NCC(=O)O)c1ccccc1; Nlys = NCCCCNCC(=O)O
Result type: MIC of peptidomimetics
Field note: include the unit after the figure.

// field: MIC of peptidomimetics; key: C[C@@H](c1ccccc1)N(CC(N)=O)C(=O)CN(C(=O)CN(CCCCN)C(=O)CN(C(=O)CN(C(=O)CN(CCCCN)C(=O)CN(C(=O)CN(C(=O)CN(CCCCN)C(=O)CN(C(=O)CN(C(=O)CNCCCCN)[C@@H](C)c1ccccc1)[C@@H](C)c1ccccc1)[C@@H](C)c1ccccc1)[C@@H](C)c1ccccc1)[C@@H](C)c1ccccc1)[C@@H](C)c1ccccc1)[C@@H](C)c1ccccc1 [TM1] (H-[Nlys][Nspe][Nspe][Nlys][Nspe][Nspe][Nlys][Nspe][Nspe][Nlys][Nspe][Nspe]-NH2) ; value = 3.9 µg/mL

Where do these numbers come from? They come from paper PMC11879280.
